Assay: Oral bioavailability of hydrocodone conjugates in rats, LC/MS/MS
Conditions: male, Sprague-Dawley, rat, plasma, po, 2 mg/kg
MEASURED_METRIC: concentration at 0.5 h (ng/mL)

> print(dat)
                                   compound      u  numeric.value
1  COc1ccc2c3c1O[C@H]1C(=O)CC[C@H]4[C@@H](C2)N(C)CC[C@]314 [Hydrocodone, reference compound]  ng/mL           15.6

---

Experiment: Crossover pharmacokinetics in dogs, oral vs 30-min intravenous infusion, LC-MS/MS
Format: in vivo, male beagle dogs
Settings: male, beagle, dog, plasma, po, 1 mg/kg, male beagle dog; oral; 1 mg/kg d-amphetamine base; mean; read-out: t1/2 of L-lysine-d-amphetamine (converted)
MEASURED_METRIC: half-life

> print(dat)
                                   compound    result
1  CC(Cc1ccccc1)NC(=O)C(N)CCCCN (stereo not shown)  23.4 min

---

Assay: Oral bioavailability of hydrocodone conjugates in rats, LC/MS/MS
Settings: oral, 5 mg/kg dose, 1.5 Hours
Where a SMILES comes first, the peptide text is derived from it. The star is where a group is joined. X1 = COc1ccc2c3c1O[C@H]1C(O*)=CC[C@H]4[C@@H](C2)N(C)CC[C@]314
Items are presented alongside their recorded hydrocodone plus hydromorphone concentration.
MEASURED_METRIC: hydrocodone plus hydromorphone concentration (ng/mL)

COMPOUND	NUMERIC_VALUE
CC[C@H](C)[C@H](NC(=O)[C@H](CC(=O)O)NC(=O)[C@@H](N)CC(=O)O)C(=O)OC1=CC[C@H]2[C@H]3Cc4ccc(OC)c5c4[C@@]2(CCN3C)[C@H]1O5 [DDI-HC, Asp-Asp-Ile-Hydrocodone]	19
CC[C@H](C)[C@H](NC(=O)[C@H](Cc1ccccc1)NC(=O)[C@H](Cc1ccccc1)NC(=O)[C@H](Cc1ccc(O)cc1)NC(=O)[C@@H](N)Cc1ccc(O)cc1)C(=O)OC1=CC[C@H]2[C@H]3Cc4ccc(OC)c5c4[C@@]2(CCN3C)[C@H]1O5 [YYFFI[SEQ ID NO: 8]-HC] (H-YYFFI-X1)	34
CC[C@H](C)[C@H](NC(=O)[C@H](Cc1ccc(O)cc1)NC(=O)[C@@H](N)Cc1ccc(O)cc1)C(=O)OC1=CC[C@H]2[C@H]3Cc4ccc(OC)c5c4[C@@]2(CCN3C)[C@H]1O5 [YYI-HC, Tyr-Tyr-Ile-Hydrocodone]	6.3
CC[C@H](C)[C@H](NC(=O)[C@H](Cc1ccccc1)NC(=O)[C@H](Cc1ccccc1)NC(=O)[C@H](CCC(=O)O)NC(=O)[C@@H](N)CCC(=O)O)C(=O)OC1=CC[C@H]2[C@H]3Cc4ccc(OC)c5c4[C@@]2(CCN3C)[C@H]1O5 [EEFFI[SEQ ID NO: 5]-HC] (H-EEFFI-X1)	6.5

---

Items are presented alongside their recorded Percent HC (Cmax).
Assay: Intravenous bioavailability of hydrocodone conjugates in rats, LC/MS/MS
Details: intravenous, 1 mg/kg dose, relative to hydrocodone bitartrate
Where a SMILES comes first, the peptide text is derived from it. The star is where a group is joined. X1 = COc1ccc2c3c1O[C@H]1C(O*)=CC[C@H]4[C@@H](C2)N(C)CC[C@]314

COMPOUND	U	Percent HC (Cmax)
CC[C@H](C)[C@H](NC(=O)[C@H](Cc1ccccc1)NC(=O)[C@H](Cc1ccccc1)NC(=O)[C@H](Cc1ccc(O)cc1)NC(=O)[C@@H](N)Cc1ccc(O)cc1)C(=O)OC1=CC[C@H]2[C@H]3Cc4ccc(OC)c5c4[C@@]2(CCN3C)[C@H]1O5 [YYFFI[SEQ ID NO: 8]-HC] (H-YYFFI-X1)	%	72
COc1ccc2c3c1O[C@H]1C(OC(=O)[C@H](Cc4ccccc4)NC(=O)[C@H](Cc4ccccc4)NC(=O)[C@H](Cc4ccccc4)NC(=O)[C@H](CCC(=O)O)NC(=O)[C@@H](N)CCC(=O)O)=CC[C@H]4[C@@H](C2)N(C)CC[C@]314 [EEFFF[SEQ ID NO: 3]-HC] (H-EEFFF-X1)	%	75
CC[C@H](C)[C@H](NC(=O)[C@H](Cc1ccccc1)NC(=O)[C@H](Cc1ccccc1)NC(=O)[C@H](CCC(=O)O)NC(=O)[C@@H](N)CCC(=O)O)C(=O)OC1=CC[C@H]2[C@H]3Cc4ccc(OC)c5c4[C@@]2(CCN3C)[C@H]1O5 [EEFFI[SEQ ID NO: 5]-HC] (H-EEFFI-X1)	%	44
CC[C@H](C)[C@H](NC(=O)[C@H](Cc1ccc(O)cc1)NC(=O)[C@@H](N)Cc1ccc(O)cc1)C(=O)OC1=CC[C@H]2[C@H]3Cc4ccc(OC)c5c4[C@@]2(CCN3C)[C@H]1O5 [YYI-HC, Tyr-Tyr-Ile-Hydrocodone]	%	6

Cited source: patent US7375083B2
